Recorded values, source patent US20230066011A1.

target: CLK4 (Homo sapiens, UniProt Q9HAZ1); construct: purchased DiscoverX Corp. (ScanMAX Kinase analysis panel, service); assay: ScanMAX Kinase analysis panel, CLK4; type: binding; conditions: 1 μM in DMSO; <35% considered inhibitory; read-out: percent control (% control), CLK4
Sequence (Q9HAZ1 whole entry): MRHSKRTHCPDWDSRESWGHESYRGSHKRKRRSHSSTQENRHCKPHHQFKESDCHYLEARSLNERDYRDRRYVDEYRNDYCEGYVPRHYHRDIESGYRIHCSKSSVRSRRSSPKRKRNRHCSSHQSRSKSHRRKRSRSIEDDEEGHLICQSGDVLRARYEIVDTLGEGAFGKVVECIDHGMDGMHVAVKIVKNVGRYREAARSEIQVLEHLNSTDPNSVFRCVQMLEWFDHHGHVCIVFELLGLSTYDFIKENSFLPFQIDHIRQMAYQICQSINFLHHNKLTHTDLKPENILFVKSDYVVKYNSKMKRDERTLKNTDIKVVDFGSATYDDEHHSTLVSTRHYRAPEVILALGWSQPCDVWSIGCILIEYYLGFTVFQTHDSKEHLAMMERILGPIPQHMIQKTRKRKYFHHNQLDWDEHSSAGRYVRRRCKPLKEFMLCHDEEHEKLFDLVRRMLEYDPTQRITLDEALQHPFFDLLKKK
quantity-kind: remaining binding at 1 µM (%)

- CNc1nc(Nc2ccc(S(=O)(=O)N3CCC(N4CCOCC4)CC3)cc2OC)nc2[nH]cc(C(F)(F)F)c12 [Example 157, 2,2,2-trifluoroacetate]: 0.55
- CNc1nc(Nc2ccc(C(=O)N3CCC(N4CCOCC4)CC3)c3c2OCCO3)nc2[nH]cc(C(F)(F)F)c12: 3.6
- C=CCNc1nc(Nc2ccc(S(=O)(=O)N3CCC(N4CCOCC4)CC3)cc2OC)nc2[nH]cc(C#N)c12: 2.8
- CCCNc1nc(Nc2ccc(S(=O)(=O)N3CCC(N4CCOCC4)CC3)cc2OC)nc2[nH]cc(C(F)(F)F)c12: 0.65

[A] CCNc1nc(Nc2ccc(S(=O)(=O)N3CCC(N4CCOCC4)CC3)cc2OC)nc2[nH]cc(C(F)(F)F)c12 [Example 158, 2,2,2-trifluoroacetate]
[B] CNc1nc(Nc2ccc(P3(=O)CCN(C4CC4)CC3)cc2OC)nc2[nH]cc(C(F)(F)F)c12
[C] O=C(c1ccc(Nc2nc(C3CC3)c3c(C(F)(F)F)c[nH]c3n2)c2c1OCCO2)N1CCC(N2CCOCC2)CC1
Rank ascending by remaining binding at 1 µM. Enter labels, ranked according to the request.
C, A, B

###

Molecular target: DYRK2 (Homo sapiens, UniProt Q92630)
Construct: purchased DiscoverX Corp. (ScanMAX Kinase analysis panel, service)
Sequence (Q92630 whole entry): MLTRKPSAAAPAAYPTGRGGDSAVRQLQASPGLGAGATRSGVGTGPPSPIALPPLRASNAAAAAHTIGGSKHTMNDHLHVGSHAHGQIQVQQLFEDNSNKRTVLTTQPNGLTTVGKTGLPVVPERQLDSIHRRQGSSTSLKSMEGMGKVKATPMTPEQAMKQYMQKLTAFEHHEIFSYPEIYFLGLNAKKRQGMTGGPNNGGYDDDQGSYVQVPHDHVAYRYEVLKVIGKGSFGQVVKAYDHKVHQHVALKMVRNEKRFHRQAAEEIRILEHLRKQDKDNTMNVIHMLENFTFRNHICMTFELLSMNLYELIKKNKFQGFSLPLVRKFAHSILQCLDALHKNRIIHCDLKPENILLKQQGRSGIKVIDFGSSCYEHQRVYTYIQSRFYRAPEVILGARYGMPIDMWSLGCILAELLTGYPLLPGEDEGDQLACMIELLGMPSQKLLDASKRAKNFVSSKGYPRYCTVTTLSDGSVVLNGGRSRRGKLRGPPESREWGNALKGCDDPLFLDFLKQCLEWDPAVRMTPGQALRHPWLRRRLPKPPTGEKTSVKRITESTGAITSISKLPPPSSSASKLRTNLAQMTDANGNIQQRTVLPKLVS
Test: ScanMAX Kinase analysis panel, DYRK2
Assay type: binding
Settings: 1 μM in DMSO; <35% considered inhibitory; read-out: percent control (% control), DYRK2
Procedure: Specifically, the enzyme (kinase) selectivity of Example compounds 238, 361, 411, 157, 161, 228, and 158 selected from the Example compounds of the present invention was determined by commissioning DiscoverX Corp., and an experiment was performed using a ScanMAX™ Kinase analysis panel. In this case, a concentration of the drug with which the enzymes were treated was 1 μM in DMSO, and the percent control (% control) was defined in the same manner as in the following Expression 1. […]
quantity-kind: remaining binding at 1 µM (%)

Examples with their reported remaining binding at 1 µM follow.
- CCNc1nc(Nc2ccc(S(=O)(=O)N3CCC(N4CCOCC4)CC3)cc2OC)nc2[nH]cc(C(F)(F)F)c12 [Example 158, 2,2,2-trifluoroacetate]: 25
- O=C(c1ccc(Nc2nc(C3CC3)c3c(C(F)(F)F)c[nH]c3n2)c2c1OCCO2)N1CCC(N2CCOCC2)CC1: 16
- CCCNc1nc(Nc2ccc(S(=O)(=O)N3CCC(N4CCOCC4)CC3)cc2OC)nc2[nH]cc(C(F)(F)F)c12: 33

[1] CNc1nc(Nc2ccc(C(=O)N3CCC(N4CCOCC4)CC3)c3c2OCCO3)nc2[nH]cc(C(F)(F)F)c12
[2] CNc1nc(Nc2ccc(P3(=O)CCN(C4CC4)CC3)cc2OC)nc2[nH]cc(C(F)(F)F)c12
[3] CNc1nc(Nc2ccc(S(=O)(=O)N3CCC(N4CCOCC4)CC3)cc2OC)nc2[nH]cc(C(F)(F)F)c12 [Example 157, 2,2,2-trifluoroacetate]
[4] C=CCNc1nc(Nc2ccc(S(=O)(=O)N3CCC(N4CCOCC4)CC3)cc2OC)nc2[nH]cc(C#N)c12
Rank the 4 compounds: largest remaining binding at 1 µM first, smallest last. Enter labels, ranked according to the request.
2, 1, 4, 3

###

system: human DYRK1A and tau; assay: Inhibition of tau phosphorylation, ClariCELL Kinase Cell-Based Assay, HEK 293 cells expressing human DYRK1A and tau; settings: HEK293, tau phosphorylation, compound 0.5 uM
quantity-kind: inhibition at 0.5 µM (%)
Express your answer in %, writing the number without its unit.

Examples with their reported inhibition at 0.5 µM follow.
- O=C(c1ccc(Nc2nc(C3CC3)c3c(C(F)(F)F)c[nH]c3n2)c2c1CCO2)N1CC[C@@H](N2CCOCC2)C1: 29.6
- CCCNc1nc(Nc2ccc(C(=O)N3CCC(N4CCOCC4)CC3)c3c2OCC3)nc2[nH]cc(C(F)(F)F)c12: 61.1

Which inhibition at 0.5 µM reading was recorded for the molecule O=C(c1ccc(Nc2nc(NCC3CC3)c3c(C(F)(F)F)c[nH]c3n2)c2c1OCCO2)N1CCN(C2COC2)CC1 ?
19.6

Which inhibition at 0.5 µM reading was recorded for the molecule CNc1nc(Nc2ccc(P3(=O)CCN(C4CC4)CC3)cc2OC)nc2[nH]cc(C(F)(F)F)c12 ?
48.9

Which inhibition at 0.5 µM reading was recorded for the molecule N#Cc1c[nH]c2nc(Nc3ccc(C(=O)N4CCN(C5COC5)CC4)c4c3OCCO4)nc(NC3CCOCC3)c12 ?
8.3

Which inhibition at 0.5 µM reading was recorded for the molecule O=C(c1ccc(Nc2nc(C3CC3)c3c(C(F)(F)F)c[nH]c3n2)c2c1OCCO2)N1CCOCC1 ?
22.8

Which inhibition at 0.5 µM reading was recorded for the molecule CC(C)Nc1nc(Nc2ccc(C(=O)N3CCN(C4COC4)CC3)c3c2OCCO3)nc2[nH]cc(C(F)(F)F)c12 ?
57.4

###

Entries below carry reported pIC50 on UniProt:Q13627.
pIC50: −log10 of the molar value.

* COCC(C)(C)Nc1nc(Nc2ccc(S(=O)(=O)N3CCOCC3)cc2OC)nc2[nH]cc(C(F)(F)F)c12 [Example 175] | 6.00 to 6.52

For UniProt:Q13627, provide pIC50 of COc1cc(S(=O)(=O)N2CCC(N3CCOCC3)CC2)ccc1Nc1nc(NCC2CCC2)c2c(C(F)(F)F)c[nH]c2n1 [Example 197] please.
6.00 to 6.52

For UniProt:Q13627, provide pIC50 of CCNc1nc(Nc2ccc(C(=O)N3CCC(N4C[C@@H]5C[C@H]4CO5)CC3)c3c2OCC3)nc2[nH]cc(C(F)(F)F)c12 [Example 468] please.
> 7.00

For UniProt:Q13627, provide pIC50 of COc1cc(P2(=O)CCN(C3COC3)CC2)ccc1Nc1nc(NCC(C)C)c2c(C#N)c[nH]c2n1 [Example 291] please.
6.00 to 6.52

###

Entries below carry reported pIC50 on UniProt:P49759.
Sequence (P49759 129-484 limits assumed): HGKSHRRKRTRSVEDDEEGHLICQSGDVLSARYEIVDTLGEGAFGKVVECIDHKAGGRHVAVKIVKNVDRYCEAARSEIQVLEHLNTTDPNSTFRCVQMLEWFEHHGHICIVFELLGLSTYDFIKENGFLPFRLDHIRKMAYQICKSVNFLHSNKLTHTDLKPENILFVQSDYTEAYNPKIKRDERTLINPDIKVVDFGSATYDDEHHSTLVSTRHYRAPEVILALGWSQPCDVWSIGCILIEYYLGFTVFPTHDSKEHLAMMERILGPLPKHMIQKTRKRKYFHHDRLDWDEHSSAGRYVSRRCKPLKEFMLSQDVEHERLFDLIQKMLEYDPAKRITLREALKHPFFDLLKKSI
pIC50: −log10 of the molar value.

Examples with their reported pIC50 follow.
• CCCCNc1nc(Nc2ccc(C(=O)N3CCOCC3)c3c2OCCO3)nc2[nH]cc(C#N)c12 = 6.00 to 6.52
• CNc1nc(Nc2ccc(P3(=O)CCN(C4COC4)CC3)cc2OC)nc2[nH]cc(C#N)c12 = 6.00 to 6.52
• COc1cc(P2(=O)CCN(C3COC3)CC2)ccc1Nc1nc(NC2CC2)c2c(C#N)c[nH]c2n1 = > 7.00

Which pIC50 reading was recorded for the compound COc1cc(S(=O)(=O)N2CCOCC2)ccc1Nc1nc(NCC2CCCC2)c2cc[nH]c2n1 [Example 40, 2,2,2-trifluoroacetate] ?
6.00 to 6.52

Which pIC50 reading was recorded for the compound COc1cc(P2(=O)CCN(C3CC3)CC2)ccc1Nc1nc(NC2CC2)c2c(C(F)(F)F)c[nH]c2n1 ?
> 7.00

Which pIC50 reading was recorded for the compound N#Cc1c[nH]c2nc(Nc3ccc(C(=O)N4CCOCC4)c4c3OCCO4)nc(NCC3CCC3)c12 ?
6.00 to 6.52

Which pIC50 reading was recorded for the compound N#Cc1c[nH]c2nc(Nc3ccc(C(=O)N4CCC(N5CCOCC5)CC4)c4c3OCCO4)nc(C3CC3)c12 ?
> 7.00

###

Entries below carry reported IC50 on human GST-DYRK1A (Homo sapiens).

• N#Cc1c[nH]c2nc(Nc3ccc(C(=O)N4CCOCC4)c4c3OCCO4)nc(N[C@H]3CCOC3)c12 = 301 to 1000 nM
• CCNc1nc(Nc2ccc(C(=O)N3CCOCC3)c3c2OCCO3)nc2[nH]cc(C(F)(F)F)c12 [Example 156, 2,2,2-trifluoroacetate] = 101 to 300 nM
• COc1cc(S(=O)(=O)N2CCOCC2)ccc1Nc1nc(NC2CCC2)c2c(C#N)c[nH]c2n1 = 301 to 1000 nM

Which IC50 reading was recorded for the compound COc1cc(P(C)(C)=O)ccc1Nc1nc(NCC2CC2)c2c(C#N)c[nH]c2n1 ?
301 to 1000 nM

Which IC50 reading was recorded for the compound COc1cc(S(C)(=O)=O)ccc1Nc1nc(NCC2CCC2)c2cc[nH]c2n1 [Example 39, 2,2,2-trifluoroacetate] ?
301 to 1000 nM

Which IC50 reading was recorded for the compound COCCNc1nc(Nc2ccc(C(=O)N3CCOCC3)c3c2OCC3)nc2[nH]cc(C#N)c12 ?
101 to 300 nM

Which IC50 reading was recorded for the compound COc1cc(S(=O)(=O)N2CCC(N3CCOCC3)CC2)ccc1Nc1nc(NCCS(C)(=O)=O)c2c(C#N)c[nH]c2n1 ?
301 to 1000 nM
